Experiment: Half life in iv dosed rat
Type: ADME, organism-based
Details: in vivo
reported property: half-life (min)
Hi! Could you send only the number? It should be in min, unit omitted.

QUERY: Given the entry CC1CC1C(=O)Nc1ccc(C[C@H](NC(=O)c2ccc(C(=O)O)s2)C(=O)N(C)Cc2cc(=O)[nH]c3ccc(Cl)cc23)cc1 (stereo partly specified) , report its measured half-life.
RESULT: 48.6

----------
Assay: Tmax in iv dosed rat
Type: ADME, organism-based
Conditions: in vivo
reported property: Tmax (min)
The reply should contain only the number, in min.

QUERY: Name the recorded Tmax for CC1CC1C(=O)Nc1ccc(C[C@H](NC(=O)c2ccc(C(=O)O)s2)C(=O)N(C)Cc2cc(=O)[nH]c3ccc(Cl)cc23)cc1 (stereo partly specified) .
RESULT: 1.2

// provenance: ChEMBL document CHEMBL5608162
